- Test system: XF498
- Test summary: NCI tumour cell line growth inhibition, 48 h
Calls of active or inactive are those of the source. Rule as the data show it: active = GI50 up to about 1.1 µM and inactive = higher.
Field: GI50. Provide a value for each of the compounds that follow.

Please give GI50 for each item listed below.
1. CC(C)C12C=CC(C)(CC1)n1c(=O)c3cc4ccccc4cc3c(=O)n12 (stereo not drawn)
2. Cc1ccn2c(c1)nc1nc3ccccc3nc12
3. C=CCCCCCCCCC(=O)NS(=O)(=O)c1ccccc1
4. C=C1CC2CC(O)CC(C1)C2 (stereo not drawn)
5. C[C@@H]1[C@H](c2ccccc2)O[B-]2(c3ccc(Br)cc3)OC(=O)C[N+]12C (stereo partly drawn)

Completion:
["26.4 µM (inactive)", "> 100 µM (inactive)", "> 100 µM (inactive)", "> 100 µM (inactive)", "97.1 µM (inactive)"]

List GI50 for every entry below, keeping the order given.
1. CC(C)=C1CCC(CN2CCOCC2)C1=O (stereo not drawn)
2. CN(C)CCNC(=O)c1cccc2[nH]c(-c3ccc(Cl)cc3)nc12
3. S=c1sc2c(Cl)nc(Cl)nc2n1-c1ccccc1

Completion:
12.7 µM (inactive)
4.49 µM (inactive)
94.2 µM (inactive)

---

- Tested on: XF498
- Test summary: NCI tumour cell line growth inhibition, 48 h
Activity calls are given as the source filed them. No stated cut-off is given here; in the data, active = GI50 up to about 1.1 µM and inactive = higher.
Choose one outcome from this list and give only that: yes = active, no = inactive

Example cases with answers are listed next.
Cc1cc(N(CCC#N)S(=O)(=O)c2ccccc2)ccc1/C=C1N=C(/C=C/c2ccccc2)OC\1=O; no
Cc1cccc2c1C(=O)OC2(C)c1cccc2ccccc12 (stereo unspecified); no
Cn1c(=O)c2nc(N3CCOCC3)cnc2n(C)c1=O; no

Prompt: Hey, what did the test say about CC(C)COC(=O)N1N=NC2C3OC(CC3=O)C21 (stereo unspecified) ?
Completion: no

Prompt: Test call for this molecule, please: N#Cc1ccccc1NC(=O)C(=O)C1NC(=S)NC1=O (stereo unspecified)
Completion: no

---

Can you tell me GI50 for the items I'm about to list?
- Test system: MDA-MB-435
- Test summary: NCI tumour cell line growth inhibition, 48 h
Active and inactive are the calls of the source. Cut-off read from the data, not from the text of the source: active = GI50 up to about 1.1 µM and inactive = higher.

// below: answered compounds
N=C(N)NCCCC(=O)O; > 100 µM (inactive)
CCCCn1c(C)c(C)c2c1NN=C(C#N)S2(=O)=O; > 100 µM (inactive)
Cc1cc(O)c2c(c1)C(=O)C(c1c(C)cc3c(c1O)C(=O)C1OC1C3=O)=CC2=O (stereo unspecified); 2.54 µM (inactive)
NCCC1(N)CCNCC1; > 100 µM (inactive)
O=C1C(NS(=O)(=O)c2ccccc2)=C(n2cnc3ccccc32)C(=O)c2ccccc21; > 100 µM (inactive)

Record GI50 for all entries; do not skip any.
1. CCOC(=O)NC(Nc1cccc(C(F)(F)F)c1)(C(F)(F)F)C(F)(F)F
2. Cc1cc(=O)nc(Sc2ccc([N+](=O)[O-])cc2[N+](=O)[O-])[nH]1
3. CC(C)=CCCC(C)C1=C(O)C(=O)C(C)=CC1=O (stereo unspecified)
4. O=C(Cc1ccc(Cl)c(Cl)c1)N(CCc1ccc(Cl)c(Cl)c1)CCN1CCCC1
5. C[S+]([O-])c1ncc2c(n1)-c1ccccc1OC2 (stereo unspecified)
6. O=C(CCc1ccccc1)On1c(-c2ccccc2)nc2ccccc2c1=S

Completion:
> 100 µM (inactive)
25.6 µM (inactive)
16.7 µM (inactive)
1.77 µM (inactive)
> 100 µM (inactive)
8.18 µM (inactive)

---

- Test system: OVCAR-8
- Test summary: NCI tumour cell line growth inhibition, 48 h
The source made the active and inactive calls. Rule as the data show it: active = GI50 up to about 1.1 µM and inactive = higher. Where a SMILES comes first, the peptide text is derived from it. The star is where a group is joined. ONb = O=[N+]([O-])c1ccc(CO*)cc1; Boc = CC(C)(C)OC(=O)*
Your response should consist of one outcome taken from TRUE (active), FALSE (inactive)

Below, 5 compounds whose answers are already recorded.
O=[N+]([O-])c1ccc(S(=O)(=O)n2c3ccc(Br)cc3c3nc4ccccc4nc32)cc1; FALSE
COc1cc(/C=C(\C#N)c2ccccn2)cc(Br)c1O; FALSE
O=C(O)[C@@H]1C2CC([C@@H]1C(=O)O)[C@H](N1C(=O)CCC1=O)[C@@H]2Br (stereo partly drawn); FALSE
CC(C)(Oc1ccc(Cl)cc1)C(=O)N(C(=O)N1CCN(c2ccccc2)CC1)c1ccccc1; FALSE
C/C=C(\C)c1cc(=O)c2c(C)cc3c(c2o1)C(OC)(OC(C)=O)c1c(O)c(C2CC(C)(N(C)C)C(OC(C)=O)C(C)O2)cc(C2CC(N(C)C)C(OC(C)=O)C(C)O2)c1C3=O (stereo not drawn); TRUE

Prompt: Short answer needed: outcome of this test for CC(C)CC(NC(=O)OC(C)(C)C)C(=O)NC(CCC(=O)OCc1ccc([N+](=O)[O-])cc1)C(=O)OCc1ccc([N+](=O)[O-])cc1 (stereo not drawn) (Boc-Leu-Glu(ONb)-ONb; configuration not given here) ?
Completion: FALSE

Prompt: # outcome recorded in this test, key = Cc1ccc2c(c1)OC1Nc3ccccc3C1=C2O (stereo not drawn)
Completion: FALSE

Prompt: What is the recorded call for this compound in the test? c1sc(NC2=NCCO2)c2c1CCCC2
Completion: FALSE

---

- Test system: COLO 205
- Test summary: NCI tumour cell line growth inhibition, 48 h
Calls of active or inactive are those of the source. No stated cut-off is given here; in the data, active = GI50 up to about 1.1 µM and inactive = higher.
Recorded metric: GI50

Observe how each entry below is paired with its result.
CC(C)=CCC/C(C)=C/CCC(C(=O)COCc1ccccc1)P1(=O)OC(C)(C)CN1C(C)(C)C (centres undefined); 42.2 µM (inactive)
CC(C)C[C@H]1[C@@H](OCc2ccccc2)COS(=O)(=O)N1[C@H](C)c1ccccc1; > 72.6 µM (inactive)
CCN1CC2=C(NC(=S)NC2c2ccc(Cl)cc2)/C(=C/c2ccc(Cl)cc2)C1 (centres undefined); > 100 µM (inactive)
COC(=O)[C@H](CC(C)C)NC(=O)[C@H](Cc1ccccc1)N1CC2C=CC1C2 (some centres undefined); > 100 µM (inactive)
O=C1C(Br)=C(C2=CC(=P(c3ccccc3)(c3ccccc3)c3ccccc3)C=C2)C(=O)C(Br)=C1C1=CC(=P(c2ccccc2)(c2ccccc2)c2ccccc2)C=C1; > 100 µM (inactive)

List GI50 for every entry below, keeping the order given.
1. COc1cc(C(=O)N(C(=O)N2CCCCC2)c2ccccc2)cc(OC)c1OC
2. S=c1sc2c(Cl)nc(Cl)nc2n1-c1ccccc1
3. COc1ccc(NCc2c(O)ccc3ccccc23)cc1
4. Nc1ncnc2c1N=C(c1ccccc1)CC(c1ccccc1)N2 (centres undefined)

Completion:
["> 100 µM (inactive)", "> 100 µM (inactive)", "22.8 µM (inactive)", "> 100 µM (inactive)"]

---

- System: SF-539
- Test summary: NCI tumour cell line growth inhibition, 48 h
Calls of active or inactive are those of the source. No stated cut-off is given here; in the data, active = GI50 up to about 1.1 µM and inactive = higher.
Recorded metric: GI50

c1ccc2[nH]c(-c3nc4ccccc4o3)nc2c1; > 100 µM (inactive)
CC1=Cc2cccc(C)c2C(=O)C1=O; 6.56 µM (inactive)
CCCCCCCCCCCCCCCC(=O)OCC1OC(n2cc(F)c(=O)[nH]c2=O)C(NC(=O)N(CCCl)N=O)C(O)C1O (stereo not given); 0.122 µM (active)
CNc1ccc(Cl)cc1S(=O)(=O)c1ccccc1[N+](=O)[O-]; > 100 µM (inactive)

Next item in the queue.
Prompt: Entry CC(C)(NC(=O)OCc1ccccc1)C(=O)OC(=O)C(C)(C)NC(=O)OCc1ccccc1 : reported GI50 = ?
Completion: > 100 µM (inactive)

---

- System: UACC-62
- Test summary: NCI tumour cell line growth inhibition, 48 h
Calls of active or inactive are those of the source. Cut-off read from the data, not from the text of the source: active = GI50 up to about 1.1 µM and inactive = higher.
Would you mind answering with one of these outcomes? active, inactive

Prompt: Fill in: this test's call for CN(N=O)C(=O)Nc1c[nH]c(=O)[nH]c1=O is ___
Completion: inactive

Prompt: Could you check what this test reported for COc1ccc2nc(NC(=O)C(=O)C(C(=O)c3ccccc3-c3ccccc3)C3OC(=O)c4ccccc43)sc2c1 (centres undefined) ?
Completion: inactive

Prompt: Entry CC(/C=N/N=C1NCCCN1)=N\N=C1NCCCN1 : call = ?
Completion: inactive

Prompt: Tell me the recorded outcome of this test for O=C1C(Br)=C(C2=CC(=P(c3ccccc3)(c3ccccc3)c3ccccc3)C=C2)C(=O)C(Br)=C1C1=CC(=P(c2ccccc2)(c2ccccc2)c2ccccc2)C=C1 .
Completion: inactive

Prompt: # lookup: test call for Cn1ccnc1S/C(=C\C=C(C#N)C#N)c1ccc(Cl)cc1
Completion: inactive

---

- Tested on: SF-295
- Test summary: NCI tumour cell line growth inhibition, 48 h
The source made the active and inactive calls. Rule as the data show it: active = GI50 up to about 1.1 µM and inactive = higher.
I'd appreciate it if you could supply GI50 values for the items below.

Solved entries (count: 5):
COc1ccc(N2C(=O)C(C)SC2c2cc3cc(Br)ccc3nc2Cl)cc1 (stereo not given); 33.1 µM (inactive)
O=[N+]([O-])c1ccc(/C=N/n2c(S)nnc2CCc2nnc(S)n2/N=C/c2ccc([N+](=O)[O-])o2)o1; > 100 µM (inactive)
O=C1OC(O)C(Oc2c(Cl)cccc2Cl)=C1Cl (stereo not given); 17.5 µM (inactive)
CC(C)=C1C(=O)C[C@]2(C)C/C=C(\C)CC/C=C(\C)CC[C@@H]12; 11.3 µM (inactive)
O=C1C(NS(=O)(=O)c2ccccc2)=C(n2cnc3ccccc32)C(=O)c2ccccc21; 57.4 µM (inactive)

# return GI50 for each item in the list
1. COC(=O)C1(Cc2ccc3c(c2)CCC3)Cc2ccccc2C1=O (stereo not given)
2. CC(=O)OCc1cc(OC(C)=O)c2cc3c(OC(C)=O)cccc3c(OC(C)=O)c2c1
3. C#CCSc1cnc2ccccc2c1Sc1c[nH]c2ccccc2c1=O
4. CC1=Cc2cccc(C)c2C(=O)C1=O
5. COc1c(C)cc2c(C(C)C)c(O)c(O)c(C=O)c2c1O

Completion:
9.98 µM (inactive)
13.6 µM (inactive)
24.1 µM (inactive)
5.14 µM (inactive)
28.8 µM (inactive)
